Origin of measurements: PubChem BioAssay (NCI)

- Tested on: LXFL 529 NSCLC
- protocol: NCI tumour cell line growth inhibition, 48 h

# molecule, readout unit, qual, TGI
records = [
    ("O=C(CC1(O)C(=O)Nc2ccc(Br)cc21)c1cccc([N+](=O)[O-])c1 (configuration not stated)", "µM", ">", 100),
    ("CCn1c(O)c(C(=O)Nc2cccs2)c(=O)n(CC)c1=S", "µM", "=", 55.7),
    ("O=C1C(=C2C(=O)c3ccccc3[N+]2=O)N([O-])c2ccccc21", "µM", "=", 43.5),
    ("CCOC(=O)/C(C#N)=c1/s/c(=C(\\O)N/N=C/c2ccc(OC)cc2)c(=N)n1-c1ccccc1", "µM", ">", 100),
    ("O=C(NC(=Nc1ccccc1)SCCSC(=Nc1ccccc1)NC(=O)c1ccccc1)c1ccccc1", "µM", ">", 100),
    ("O=C(O)OC12CCCCCC1C(=O)C1CCCCC12 (configuration not stated)", "µM", ">", 100),
    ("CC(C)OP(=O)(OC(C)C)C(=Nc1ccc(N=C(NNc2ccc([N+](=O)[O-])cc2)P(=O)(OC(C)C)OC(C)C)cc1)NNc1ccc([N+](=O)[O-])cc1", "µM", ">", 100),
    ("Nc1cc2c(C3OC(CO)C(O)C3O)[nH]nc2c(=S)[nH]1 (configuration not stated)", "µM", ">", 100),
    ("COC1=C(OC)C(=O)c2cc(C)c(=O)c(C)cc2C1=O", "µM", "=", 13.9),
    ("CS(=O)(=O)Sc1ccc(Cl)cc1", "µM", "=", 23.3),
    ("CC1(C)OC2OC(/C=C/[N+](=O)[O-])C3OC(C)(C)OC3C2O1 (configuration not stated)", "µM", "=", 10.1),
    ("N#CC1(C2CC(=O)N(c3ccccc3)C2=O)CCCCC1=O (configuration not stated)", "µM", ">", 100),
]

---

- Test system: MCF7 breast
- protocol: NCI tumour cell line growth inhibition, 48 h

# molecule, TGI
records = [
    ("C[C@H]1CC(=O)C[C@@H]2CC[C@@H]3[C@H](CC[C@]4(C)C(OC(=O)c5cccc6c(=O)c7ccccc7[nH]c56)CC[C@@H]34)[C@]21C (stereo partly specified)", "> 100 µM"),
    ("Nc1ncnc2c1ncn2C1SC(CO)C(O)C1O (stereo unspecified)", "31.6 µM"),
    ("CC1(C)N=C(N)N=C(N)N1c1cccc(CC(=O)Nc2ccccc2)c1", "> 100 µM"),
    ("COCc1nc(C#N)c(N)o1", "> 10 µM"),
    ("C=C1C(=O)O[C@H]2[C@@H]3O[C@@](C)(CC/C=C(\\C)CCC[C@@H]2C)[C@H](O)C[C@@H]13", "15.6 µM"),
    ("Cc1cccc2c(=O)c3cccc(CC(=O)O)c3oc12", "> 100 µM"),
]

---

TGI for assorted compounds
- Tested on: UO-31 renal
- protocol: NCI tumour cell line growth inhibition, 48 h
measured parameter: TGI

# compound, value measured
records = [
    ("CC1=C(C(N)=O)C(c2ccncc2)C(C#N)C(=O)N1 (stereo unspecified)", "> 100 µM"),
    ("O=C(/C=C/c1c[nH]c2ccccc12)c1ccccc1O", "17.6 µM"),
    ("CC(C)C1CC(CO)(CNc2nc(N)nc(Cl)c2C=O)C1 (stereo unspecified)", "13 µM"),
    ("NC(Cc1c2ccccc2cc2ccccc12)C(=O)O (stereo unspecified)", "> 100 µM"),
    ("O=c1[nH]c2ccccc2c(=O)c2cc3ccccc3cc12", "> 100 µM"),
    ("CSC(SC)=C1Sc2cccc(Cl)c2S1", "> 100 µM"),
    ("COC(=O)c1c(C(=O)OC)c2ccccn2c1-c1cc(C)cc2c1C(=O)C=CC2=O", "6.05 µM"),
    ("CC1CC(=O)C(CC(=O)O)[C@H]1C(C(=O)C(=O)Nc1cc(Cl)ccc1Cl)[N+](=O)[O-] (stereo partly specified)", "> 100 µM"),
    ("CC(=O)NNc1nc(C)c(C(=O)NNC(=O)C(=O)Nc2ccc(C)cc2[N+](=O)[O-])s1", "> 100 µM"),
    ("Nc1nc(NCc2ccccc2)cc(NCc2ccccc2)n1", "21 µM"),
    ("CC(=O)OCC1OC(NC(=S)Nn2c(-c3ccccc3)nc3ccccc3c2=O)C(OC(C)=O)C(OC(C)=O)C1OC(C)=O (stereo unspecified)", "> 100 µM"),
    ("Nc1ccc(Oc2ccc(C3(c4ccc(Oc5ccc(N)c(O)c5)cc4)C4CC5CC(C4)CC3C5)cc2)cc1O", "3.82 µM"),
    ("O=c1ccn([C@@H]2C[C@H](CO)CS(=O)C2)c(=O)[nH]1 (stereo partly specified)", "> 100 µM"),
    ("O=c1cc(O)c1=O", "> 100 µM"),
    ("Cc1nnc(NS(=O)(=O)c2ccc(N=Nc3c(O)c(C(=O)O)cc4ccccc34)cc2)s1", "> 100 µM"),
    ("O=C1OCC2=C1C(c1ccc(Cl)cc1)c1cc3c(cc1O2)OCO3 (stereo unspecified)", "> 100 µM"),
    ("C/C=C/C(C/C=C(\\C)CO[Si](C)(C)C(C)(C)C)O[Si](C)(C)C(C)(C)C (stereo unspecified)", "> 100 µM"),
    ("COc1ccc2nc3cc(Cl)ccc3c(NCCCN(C)CCCNc3ccc4ncn5c6ccccc6c(=O)c3c45)c2c1", "7.28 µM"),
    ("CC1(C)N=C(N)N=C(N)N1c1cccc(CC(=O)Nc2ccccc2)c1", "> 100 µM"),
    ("CSc1cnc2ccccc2c1Sc1cn(C)c2ccccc2c1=O", "> 100 µM"),
    ("CC(C)CCNC(=O)c1ccc(CNC(=O)/C=C/c2ccc3c(c2)-c2ccccc2C3)cc1", "> 100 µM"),
]
